- system-under-test: MCR-1 (Homo sapiens)
- Construct: expressed in transfected cells; host or cells: HEK 293
- protocol-details: Melanocortin receptor binding assay, competition with 125I-HP 467, HEK 293 cells expressing hMCR-1
- condition-set: 10 μM isoquinoline compound, HEK 293 cells expressing MCR-1, duplicate 2
Each entry below lists one item and its recorded % Disp. of 125I-HP 467 (second of duplicate) value.
Give just the number in %; leave the unit off.

Take a look at these entries with their results.
[
  {
    "compound": "CNC(CN)CCCCN1Cc2ccccc2C(CNC2CCCCC2)C1c1ccccc1O (mixture of isomers)",
    "data-value": 44.4
  },
  {
    "compound": "CNC(CN)CCCCN1Cc2ccccc2C(CNC2CCCCC2)C1c1cc2c3c(c1O)CCCN3CCC2 (centres unmarked)",
    "data-value": 39.4
  },
  {
    "compound": "CNC(CN)CCCCN1Cc2ccccc2C(CNC2CCCCC2)C1c1ccc(S(C)(=O)=O)cc1 (mixture of isomers)",
    "data-value": 8.4
  },
  {
    "compound": "CNC(CN)CCCCN1Cc2ccccc2C(CNC2CCCCC2)C1c1cccc2c1OCO2 (centres unmarked)",
    "data-value": 60.1
  },
  {
    "compound": "CNC(CN)CCCCN1Cc2ccccc2C(CNC2CCCCC2)C1c1ccc(F)c(F)c1F (centres unmarked)",
    "data-value": 52.7
  },
  {
    "compound": "CCn1c2ccccc2c2cc(C3C(CNC4CCCCC4)c4ccccc4CN3CCCCC(CN)NC)ccc21 (centres unmarked)",
    "data-value": 65.3
  },
  {
    "compound": "CNC(CN)CCCCN1Cc2ccccc2C(CNC2CCCCC2)C1c1cccc(F)c1 (centres unmarked)",
    "data-value": 62.7
  }
]

# next compound below
INPUT: Please give measured % Disp. of 125I-HP 467 (second of duplicate) of the following entry: CNC(CN)CCCCN1Cc2ccccc2C(CNC2CCCCC2)C1c1ccc(CN)cc1 (centres unmarked)
OUTPUT: 22.5

* * *

- system-under-test: MCR-4 (Homo sapiens)
- Construct: expressed in transfected cells; host or cells: HEK 293
- Sequence (P32245 whole entry): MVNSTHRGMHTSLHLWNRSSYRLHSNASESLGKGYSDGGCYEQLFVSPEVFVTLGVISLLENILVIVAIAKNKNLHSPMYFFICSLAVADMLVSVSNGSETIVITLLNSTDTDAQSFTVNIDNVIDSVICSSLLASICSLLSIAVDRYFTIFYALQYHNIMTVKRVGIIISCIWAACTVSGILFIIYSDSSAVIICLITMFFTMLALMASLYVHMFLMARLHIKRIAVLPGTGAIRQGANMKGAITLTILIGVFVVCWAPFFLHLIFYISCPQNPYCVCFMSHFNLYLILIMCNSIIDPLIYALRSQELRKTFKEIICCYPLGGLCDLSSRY
- protocol-details: Melanocortin receptor binding assay, competition with 125I-HP 467, HEK 293 cells expressing hMCR-4
- condition-set: inhibition of binding of 125I-HP 467, HEK 293 cells expressing MCR-4; TRG 2414 library; read-out: MC-4 IC50
Recorded log10 of IC50 values for a group of compounds are listed next.
Short version: log10 scale, IC50, nM.

[
  {
    "compound": "COc1ccc(CCNCC2c3ccccc3CN(CCCCC(CN)NCCc3ccccc3)C2c2ccc(Cl)cc2Cl)cc1 (mixture of isomers)",
    "system-under-test": "MCR-4 (Homo sapiens)",
    "log10 of IC50": 3.40
  },
  {
    "compound": "NCC(N)CCCCN1Cc2ccccc2C(CNCc2ccccc2C(F)(F)F)C1c1ccc(Oc2ccccc2)cc1 (stereo not drawn)",
    "system-under-test": "MCR-4 (Homo sapiens)",
    "log10 of IC50": 4.44
  },
  {
    "compound": "COc1cccc(CNCC2c3ccccc3CN(CCCCC(CN)NCCc3ccccc3)C2c2cc(C(F)(F)F)cc(C(F)(F)F)c2)c1 (stereo not drawn)",
    "system-under-test": "MCR-4 (Homo sapiens)",
    "log10 of IC50": 3.54
  },
  {
    "compound": "COc1ccc(CNCC2c3ccccc3CN(CCCCC(CN)NCC(C)c3ccc(CC(C)C)cc3)C2c2cccc(Oc3ccccc3)c2)cc1 (stereo not drawn)",
    "system-under-test": "MCR-4 (Homo sapiens)",
    "log10 of IC50": 4.66
  },
  {
    "compound": "NCC(N)CCCCN1Cc2ccccc2C(CNC2CCCCCC2)C1c1ccc(Cl)cc1Cl (mixture of isomers)",
    "system-under-test": "MCR-4 (Homo sapiens)",
    "log10 of IC50": 2.86
  }
]

# context switch: different compound, same log10 of IC50
INPUT: Give the value of log10 of IC50 reported for the following: COc1ccccc1CCNCC1c2ccccc2CN(CCCCC(N)CN)C1c1cccc(Oc2ccccc2)c1 (stereo not drawn)
OUTPUT: 2.86

* * *

# % Disp. MC-1 10 μM listing for each entry below
- system-under-test: MCR-1 (Homo sapiens, UniProt Q01726)
- Construct: expressed in transfected cells; host or cells: HEK 293
- Sequence (Q01726 whole entry): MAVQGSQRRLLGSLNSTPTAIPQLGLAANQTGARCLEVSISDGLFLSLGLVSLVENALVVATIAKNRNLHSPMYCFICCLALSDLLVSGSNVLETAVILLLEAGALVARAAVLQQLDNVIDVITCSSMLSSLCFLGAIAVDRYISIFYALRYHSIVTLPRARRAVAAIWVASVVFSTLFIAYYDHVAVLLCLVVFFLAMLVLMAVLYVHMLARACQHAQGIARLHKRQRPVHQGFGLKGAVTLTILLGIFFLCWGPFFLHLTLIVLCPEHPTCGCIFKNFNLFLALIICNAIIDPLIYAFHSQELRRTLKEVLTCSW
- protocol-details: Melanocortin receptor binding assay, competition with 125I-HP 467, HEK 293 cells expressing hMCR-1
- condition-set: displacement of 125I-HP 467 at 10 μM isoquinoline compound; first of duplicate
- Method: All cell culture media and reagents were obtained from GibcoBRL (Gaithersburg Md.), except for COSMIC CALF SERUM (HyClone; Logan Utah). Cells were suspended in PBS, 10% COSMIC CALF SERUM and 1 mM CaCl2. […] To assay isoquinoline compounds, binding assays were performed in duplicate in a 96 well format. […] Cells were harvested on GF/B filter plates as described above and counted.
A complete answer gives the number and then names the unit.

[
  {
    "molecule": "NCCN1Cc2ccccc2C(CNC2CCCCC2)C1c1ccc(O)c(O)c1 (stereo not drawn) [TRG 2405-25]",
    "% Disp. MC-1 10 μM": "21.6%"
  },
  {
    "molecule": "NCCN1Cc2ccccc2C(CNC2CCCCC2)C1c1cccnc1 (stereo not drawn) [TRG 2405-51]",
    "% Disp. MC-1 10 μM": "30.6%"
  },
  {
    "molecule": "CNC(CN)CN1Cc2ccccc2C(CNC2CCCCC2)C1c1cc(C)c(O)c(C)c1 (stereo not drawn) [TRG 2405-122]",
    "% Disp. MC-1 10 μM": "17.6%"
  },
  {
    "molecule": "CNC(CN)CN1Cc2ccccc2C(CNC2CCCCC2)C1c1ccc(SC)cc1 (stereo not drawn) [TRG 2405-147]",
    "% Disp. MC-1 10 μM": "31.6%"
  },
  {
    "molecule": "CNC(CN)CN1Cc2ccccc2C(CNC2CCCCC2)C1c1ccccc1 (stereo not drawn) [TRG 2405-91]",
    "% Disp. MC-1 10 μM": "35.2%"
  }
]

INPUT: Provide measured % Disp. MC-1 10 μM on MCR-1 (Homo sapiens, UniProt Q01726) for NCCN1Cc2ccccc2C(CNC2CCCCC2)C1c1ccc(F)c(F)c1F (stereo not drawn) [TRG 2405-6] please.
OUTPUT: 45.7%

INPUT: Give reported % Disp. MC-1 10 μM for CNC(CN)CN1Cc2ccccc2C(CNC2CCCCC2)C1c1cccs1 (stereo not drawn) [TRG 2405-113] (MCR-1 (Homo sapiens, UniProt Q01726))
OUTPUT: 40%

INPUT: Specify the recorded % Disp. MC-1 10 μM for CNC(CN)CN1Cc2ccccc2C(CNC2CCCCC2)C1c1ccccc1O (stereo not drawn) [TRG 2405-92] , system: MCR-1 (Homo sapiens, UniProt Q01726).
OUTPUT: 57.6%

INPUT: Give % Disp. MC-1 10 μM for this entry on MCR-1 (Homo sapiens, UniProt Q01726): COc1ccc(C2C(CNC3CCCCC3)c3ccccc3CN2CCN)cc1C (stereo not drawn) [TRG 2405-46]
OUTPUT: 46.8%

* * *

- system-under-test: MCR-1 (Homo sapiens, UniProt Q01726)
- Construct: expressed in transfected cells; host or cells: HEK 293
- protocol-details: Melanocortin receptor binding assay, competition with 125I-HP 467, HEK 293 cells expressing hMCR-1
- condition-set: 10 μM isoquinoline compound, HEK 293 cells expressing MCR-1, duplicate 2
Outcome label depends on % Disp. of 125I-HP 467 (second of duplicate) relative to 50%: at/above gives Condition met, below gives Condition not met.

Reference set, count: 7
[
  {
    "molecule": "CNC(CN)CCCCN1Cc2ccccc2C(CNC2CCCCC2)C1c1ccc(OC)cc1 (centres unmarked) [TRG 2405-240]",
    "assigned-label": "Condition met"
  },
  {
    "molecule": "CNC(CN)CCCCN1Cc2ccccc2C(CNC2CCCCC2)C1c1cccn1C (centres unmarked) [TRG 2405-184]",
    "assigned-label": "Condition not met"
  },
  {
    "molecule": "CNC(CN)CCCCN1Cc2ccccc2C(CNC2CCCCC2)C1c1ccc(C(C)C)cc1 (centres unmarked) [TRG 2405-247]",
    "assigned-label": "Condition met"
  },
  {
    "molecule": "CNC(CN)CCCCN1Cc2ccccc2C(CNC2CCCCC2)C1c1ccc(Br)cc1 (centres unmarked) [TRG 2405-242]",
    "assigned-label": "Condition met"
  },
  {
    "molecule": "CNC(CN)CCCCN1Cc2ccccc2C(CNC2CCCCC2)C1c1cccc(Oc2ccccc2)c1 (centres unmarked) [TRG 2405-230]",
    "assigned-label": "Condition met"
  },
  {
    "molecule": "CNC(CN)CCCCN1Cc2ccccc2C(CNC2CCCCC2)C1c1ccc(OCCCN(C)C)cc1 (centres unmarked) [TRG 2405-234]",
    "assigned-label": "Condition not met"
  },
  {
    "molecule": "CNC(CN)CCCCN1Cc2ccccc2C(CNC2CCCCC2)C1c1cccc(Oc2ccc(Cl)c(Cl)c2)c1 (mixture of isomers) [TRG 2405-213]",
    "assigned-label": "Condition met"
  }
]

# input for lookup
INPUT: Reported % Disp. of 125I-HP 467 (second of duplicate) reaches at least 50% for CNC(CN)CCCCN1Cc2ccccc2C(CNC2CCCCC2)C1c1cc(C)c(O)c(C)c1 (centres unmarked) [TRG 2405-212] ?
OUTPUT: Condition not met

Each recorded value in this set is attributed to patent US6608082B1.
